Reference source for all entries: the supplement of paper PMC11246515

Assay Summary: total protein half-life in vivo (active degradation + dilution); higher = more stable protein
Run Parameters: wild type E. coli NCM3722; growth: N-lim chemostat; doubling time 6 h
Measured Endpoint: total protein half-life in vivo (h)
Write down the numeric answer in h and omit the unit.

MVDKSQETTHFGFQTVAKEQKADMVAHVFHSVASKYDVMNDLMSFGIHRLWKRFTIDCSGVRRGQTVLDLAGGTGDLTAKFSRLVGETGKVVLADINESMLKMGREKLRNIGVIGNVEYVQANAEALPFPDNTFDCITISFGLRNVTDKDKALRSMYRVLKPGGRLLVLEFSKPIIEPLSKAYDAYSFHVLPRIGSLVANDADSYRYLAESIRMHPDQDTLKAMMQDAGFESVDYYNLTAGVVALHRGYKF [P0A887] :: 4.36

Asked: Output measured total protein half-life in vivo for this item: `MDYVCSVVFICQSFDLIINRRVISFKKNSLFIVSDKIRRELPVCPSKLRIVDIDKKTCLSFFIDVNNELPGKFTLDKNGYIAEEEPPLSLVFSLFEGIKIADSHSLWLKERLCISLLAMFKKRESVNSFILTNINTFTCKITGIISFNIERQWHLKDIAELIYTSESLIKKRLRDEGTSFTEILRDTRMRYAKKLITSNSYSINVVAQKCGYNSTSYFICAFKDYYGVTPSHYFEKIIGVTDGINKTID`
Given back: 2.95

Asked: Output measured total protein half-life in vivo for this item: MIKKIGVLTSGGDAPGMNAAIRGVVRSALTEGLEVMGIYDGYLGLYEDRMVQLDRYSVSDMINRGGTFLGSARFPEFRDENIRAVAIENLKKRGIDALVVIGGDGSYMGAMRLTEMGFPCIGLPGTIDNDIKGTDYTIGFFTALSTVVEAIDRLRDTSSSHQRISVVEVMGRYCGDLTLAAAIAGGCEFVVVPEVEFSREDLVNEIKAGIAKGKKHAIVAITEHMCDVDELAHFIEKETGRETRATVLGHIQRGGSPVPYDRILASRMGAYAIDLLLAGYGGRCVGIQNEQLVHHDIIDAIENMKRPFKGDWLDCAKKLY [P0A796]
Given back: 3.64

###

Assay Summary: total protein half-life in vivo (active degradation + dilution); higher = more stable protein
Run Parameters: E. coli NCM3722 delta-clpP delta-lon delta-hslV; growth: N-lim chemostat; doubling time 6 h
// total protein half-life in vivo lookup, one value per entry
Write down the numeric answer in h and omit the unit.

The following sequences have reported results that may help.
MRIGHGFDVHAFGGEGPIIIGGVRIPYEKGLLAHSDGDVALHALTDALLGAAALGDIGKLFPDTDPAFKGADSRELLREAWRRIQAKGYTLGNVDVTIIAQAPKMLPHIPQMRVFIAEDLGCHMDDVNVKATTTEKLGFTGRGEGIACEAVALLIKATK :: 5.75
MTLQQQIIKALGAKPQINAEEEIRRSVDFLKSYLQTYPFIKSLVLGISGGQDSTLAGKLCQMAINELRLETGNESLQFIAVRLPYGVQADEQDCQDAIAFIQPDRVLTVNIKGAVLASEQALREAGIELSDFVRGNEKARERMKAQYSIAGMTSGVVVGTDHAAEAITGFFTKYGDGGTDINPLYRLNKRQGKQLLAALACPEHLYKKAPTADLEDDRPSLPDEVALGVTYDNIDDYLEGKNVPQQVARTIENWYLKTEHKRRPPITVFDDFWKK :: 4.93
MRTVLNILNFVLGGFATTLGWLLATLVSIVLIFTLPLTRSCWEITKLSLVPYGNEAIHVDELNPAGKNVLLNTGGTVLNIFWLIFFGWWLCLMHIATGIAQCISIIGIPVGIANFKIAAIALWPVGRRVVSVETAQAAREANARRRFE [P0AB12] :: 6.35

Asked: Output measured total protein half-life in vivo for this item: `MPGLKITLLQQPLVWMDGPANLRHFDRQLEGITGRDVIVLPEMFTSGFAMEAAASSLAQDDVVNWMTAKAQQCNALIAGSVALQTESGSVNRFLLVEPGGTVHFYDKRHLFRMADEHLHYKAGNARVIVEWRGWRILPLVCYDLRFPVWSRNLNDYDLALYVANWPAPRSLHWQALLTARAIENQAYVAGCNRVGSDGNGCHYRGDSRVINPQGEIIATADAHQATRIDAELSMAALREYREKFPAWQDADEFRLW`
Given back: 4.72

Asked: Output measured total protein half-life in vivo for this item: MTSLVSLENVSVSFGQRRVLSDVSLELKPGKILTLLGPNGAGKSTLVRVVLGLVTPDEGVIKRNGKLRIGYVPQKLYLDTTLPLTVNRFLRLRPGTHKEDILPALKRVQAGHLINAPMQKLSGGETQRVLLARALLNRPQLLVLDEPTQGVDVNGQVALYDLIDQLRRELDCGVLMVSHDLHLVMAKTDEVLCLNHHICCSGTPEVVSLHPEFISMFGPRGAEQLGIYRHHHNHRHDLQGRIVLRRGNDRS [P0A9X1]
Given back: 5.6

Asked: Output measured total protein half-life in vivo for this item: `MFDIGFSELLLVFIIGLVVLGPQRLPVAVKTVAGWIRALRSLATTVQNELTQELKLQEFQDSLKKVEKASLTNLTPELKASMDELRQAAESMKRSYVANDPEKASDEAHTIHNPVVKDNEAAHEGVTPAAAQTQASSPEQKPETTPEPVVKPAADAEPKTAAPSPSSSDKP`
Given back: 4.29

Asked: Output measured total protein half-life in vivo for this item: `MNTLLLLAALSSQITFNTTQQGDVYTIIPEVTLTQSCLCRVQILSLREGSSGQSQTKQEKTLSLPANQPIALTKLSLNISPDDRVKIVVTVSDGQSLHLSQQWPPSSEKS`
Given back: 4.26
